recordedEndpoint: melting point

As a guide, the following entries are already answered.
QUERY: Item N=C(NC(=O)c1ccc(F)c(C(F)(F)F)c1)NC(=O)c1ccc(F)c(C(F)(F)F)c1 [Example 2] : provide melting point
RESULT: 143 to 145 °C

QUERY: Item CC(C)c1ccc(C(=O)NC(=N)NC(=O)c2ccc(C(C)C)c(S(C)(=O)=O)c2)cc1S(C)(=O)=O [Example 1] : provide melting point
RESULT: 218 to 221 °C

Next:
QUERY: Item Cl.N=C(NC(=O)c1ccc(F)c(C(F)(F)F)c1)NC(=O)c1ccc(-n2ccnc2)c(C(F)(F)F)c1 [Example 4] : provide melting point
RESULT: 217 to 218 °C (dec.)
